Assign Kd to each entry below.
Target: T1, MBP-fused PDZ domain 1 of PDZRN4 (human, UniProt Q6ZMN7 224-314)
T1 sequence (looked up): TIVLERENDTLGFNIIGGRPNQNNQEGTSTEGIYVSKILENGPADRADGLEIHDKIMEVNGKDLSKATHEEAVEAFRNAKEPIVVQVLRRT
Assay: fluorescence polarisation
Where no end group is shown, it is not given here.
Answers are plain numbers, in µM.

KLPSTTL (peptide, UniProt Q15418 729-735, looked up, also: fluorescein labeled, site not given here) [fluorescein labeled RSK1 729-735 peptide, unphosphorylated] = 33

Let's switch to this binder now.
Any idea what its Kd is? The binder is KLPSTTL (peptide, UniProt Q15418 729-735, looked up, phosphorylated; fluorescein labeled) [fluorescein labeled RSK1 729-735 peptide, phosphorylated] 14
